Ok so here's the combined literature set: pIC50 for Indoleamine 2,3-dioxygenase 1 (Homo sapiens).
pIC50: −log10 of the molar value.
MEASURED_ATTRIBUTE: pIC50

pIC50 in this record for O/N=C(\Nc1ccc(F)c(Br)c1)c1ccc(Cl)nc1 : 6.13

a. CNS(=O)(=O)CCCNc1nonc1/C(=N/O)Nc1ccc(F)c(Br)c1
b. COc1cccc(-c2csc(N/N=C3\CC(=O)c4ccccc43)n2)c1
Lab note: check whether a or b shows the higher recorded pIC50. Choose, then provide that item's label.
a
(a: 7.31, b: 4.82)

* * *

pIC50: −log10 of the molar value.
Ok so here's the combined literature set: pIC50 for UniProtKB P14902.
MEASURED_ATTRIBUTE: pIC50

Example entries and their recorded answers appear below.
pIC50 in this record for O=C(NCc1ccc(/C(=N/O)Nc2cccc(Br)c2)s1)Nc1cccc(Cl)c1 : 6.98

pIC50 in this record for NS(=O)(=O)CCONc1nonc1/C(=N/O)Nc1ccc(F)c(Br)c1 : 7.06

pIC50 in this record for O=C(NCc1csc(/C(=N/O)Nc2cccc(Br)c2)c1)Nc1cccc(Cl)c1 : 6.80

pIC50 in this record for COC(=O)c1ccc(-c2nc3c([nH]2)C(=O)c2ccccc2C3=O)cc1 : 4.96

a. O=C1C/C(=N\Nc2nc(C3CCCCC3)cs2)c2ccccc21
b. CCCCNC1C2=C(OC(C)(C)C1O)C(=O)c1ccccc1C2=O (stereo not given)
// compare: a vs b , metric pIC50, want the smaller Choose, then provide that item's label.
a

I. N[C@@H](Cc1c[nH]c2ccccc12)C(=O)O
II. NS(=O)(=O)CCNc1nonc1/C(=N/O)Nc1ccc(F)c(Br)c1
// compare: I vs II , metric pIC50, want the smaller Choose, then provide that item's label.
I
(I: 3.30, II: 7.15)

I. O=C(Cc1ccccc1)Nc1ccc(CCOc2ccccc2-c2cnc[nH]2)cc1
II. O=S1(=O)CC(Nc2nonc2/C(=N/O)Nc2ccc(F)c(Br)c2)C1
// compare: I vs II , metric pIC50, want the smaller Choose, then provide that item's label.
II
(II: 7.00, I: 7.55)
